Biological target: T1, HER2 on SKBR3 cells (human, UniProt P04626 23-1255)
T1 construct: whole, on cells; also called ErbB2; HER2 p185 tyrosine kinase
Test: FMAT on SKBR3 cells; competitor labeled Herceptin
Reported Property: binding result

>>> result_value("30D10-35GS-2D3 (bispecific antibody, biparatopic Nanobody, 35GS linker; c-myc, His6-tagged) EVQLVESGGGLVQAGGSLTLSCTASETTVRIRTMAWYRQPPGNQREWVATIGSNGFATYPDSVKGRFTISRDNAKNTVYLQMNSLKPEDTAVYYCRDINRDIWGQGSQVTVSSGGGGSGGGGSGGGGSGGGGSGGGGSGGGGSGGGGSEVQLVESGGSLVQPGGSLRLSCAASGFTFDDYAMSWVRQVPGKGLEWVSSINWSGTHTDYADSVKGRFTISRNNANNTLYLQMNSLKSEDTAVYYCAKNWRDAGTTWFEKSGSAGQGTQVTVSS")
"binds"
